- test-system: C5a anaphylatoxin chemotactic receptor 1 (Homo sapiens, UniProt P21730)
- Sequence (P21730 whole entry): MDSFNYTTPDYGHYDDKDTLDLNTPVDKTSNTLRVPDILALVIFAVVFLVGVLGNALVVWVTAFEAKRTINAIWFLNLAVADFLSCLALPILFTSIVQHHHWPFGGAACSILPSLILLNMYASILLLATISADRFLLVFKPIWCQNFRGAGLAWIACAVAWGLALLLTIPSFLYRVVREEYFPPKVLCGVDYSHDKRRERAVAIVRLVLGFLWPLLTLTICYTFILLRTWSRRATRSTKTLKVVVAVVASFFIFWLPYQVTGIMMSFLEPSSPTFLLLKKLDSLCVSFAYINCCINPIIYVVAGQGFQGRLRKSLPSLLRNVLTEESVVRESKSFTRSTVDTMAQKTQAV
- assay-summary: Binding affinity against C5a anaphylatoxin chemotactic receptor assayed on human monocyte cell line U937
- Type: cell-based, U-937
pIC50: −log10 of the molar value.
Decision: pIC50 >= 5 yields Condition met, all other cases yield Condition not met.

Known results for compounds:
{"columns": ["smiles-code", "discrete-label"],
 "data": [
  ["C/N=C(/N)Nc1ccc(OCCC2CCCCC2)c(-c2ccccc2)c1", "Condition met"],
  ["N=C(N)Nc1ccc(OCc2ccccc2)c(OCc2ccccc2)c1", "Condition not met"],
  ["CNC(N)=Nc1ccc(OCC2CCCCC2)c(-c2ccccc2)c1", "Condition met"],
  ["C/N=C(/N)Nc1ccc(OCc2ccccc2)c(Oc2ccccc2)c1", "Condition met"],
  ["CNC(N)=Nc1ccc(OCc2ccccc2)c(-c2ccc(Cl)cc2)c1", "Condition not met"]
]}

Tell me whether pIC50 is at least 5 here: CNC(N)=Nc1ccc(OCCCCc2ccccc2)c(OCc2ccccc2)c1
Condition met

Tell me whether pIC50 is at least 5 here: C/N=C(/N)Nc1ccc(OCc2ccccc2)c(-c2cccc3ccccc23)c1
Condition met

Tell me whether pIC50 is at least 5 here: CNC(N)=Nc1ccc(OCCCc2ccccc2)c(-c2ccccc2)c1
Condition met

----------
- test-system: C5a anaphylatoxin chemotactic receptor 1 (Homo sapiens, UniProt P21730)
- Sequence (P21730 whole entry): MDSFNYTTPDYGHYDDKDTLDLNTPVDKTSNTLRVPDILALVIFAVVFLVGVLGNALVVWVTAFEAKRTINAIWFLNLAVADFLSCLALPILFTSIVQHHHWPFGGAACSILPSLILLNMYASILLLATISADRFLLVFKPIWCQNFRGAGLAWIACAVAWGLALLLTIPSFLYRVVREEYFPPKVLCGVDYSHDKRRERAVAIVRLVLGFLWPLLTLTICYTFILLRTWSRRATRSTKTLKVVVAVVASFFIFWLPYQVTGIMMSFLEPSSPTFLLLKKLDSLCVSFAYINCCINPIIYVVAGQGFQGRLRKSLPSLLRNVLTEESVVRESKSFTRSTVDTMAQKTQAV
- assay-summary: Binding affinity against C5a anaphylatoxin chemotactic receptor assayed on human monocyte cell line U937
- Type: cell-based, U-937
Documented pIC50 across a set of compounds
For clarity, pIC50 is expressed as the negative log10 of concentration in mol/L.

Below: 2 compounds and their reported pIC50.
{"columns": ["smiles-code", "assay-endpoint", "reported-result"],
 "data": [
  ["CNC(=N)Nc1ccc(OCc2ccccc2)c(-c2cccc(OC)c2)c1", "pIC50", 5.05],
  ["C/N=C(/N)Nc1ccc(OCC2CCCCC2)c(OCc2ccccc2)c1", "pIC50", 5.10]
]}

--- query ---
For record CCCCOc1ccc(NC(=N)NC)cc1OCc1ccccc1 the listed pIC50 is 4.52

----------
- test-system: C5a anaphylatoxin chemotactic receptor 1 (Homo sapiens, UniProt P21730)
- assay-summary: Binding affinity against C5a anaphylatoxin chemotactic receptor assayed on human monocyte cell line U937
- Assay type: cell-based, U-937
assay-endpoint: pIC50
For clarity, pIC50 is expressed as the negative log10 of concentration in mol/L.

{"columns": ["smiles-code", "pIC50"],
 "data": [
  ["CNC(N)=Nc1ccc(OCc2ccccc2)c(OC2CCCC2)c1", 4.60],
  ["CNC(N)=Nc1ccc(OCc2ccccc2)c(-c2ccccc2)c1", 5.70],
  ["CNC(N)=Nc1ccc(OCCCc2ccccc2)c(OCc2ccccc2)c1", 5.22],
  ["CNC(N)=Nc1ccc(OCCC2CCCCC2)c(OCc2ccccc2)c1", 5.05],
  ["CNC(N)=Nc1ccc(OCc2ccccc2)c(-c2ccc(OC)cc2)c1", 4.27]
]}

--- query ---
For record C/N=C(\N)Nc1ccc(OCc2ccccc2)c(OCc2ccccc2)c1 the listed pIC50 is 4.52

----------
- test-system: C5a anaphylatoxin chemotactic receptor 1 (Homo sapiens, UniProt P21730)
- assay-summary: Compound was evaluated for the antagonistic activity against C5a anaphylatoxin chemotactic receptor in human neutrophil C5a stimulated respiratory burst assay
- Assay type: functional
assay-endpoint: IC50 (nM)
The response must be a number in nM with no trailing unit.

For record CNC(N)=Nc1ccc(OCCc2ccccc2)c(-c2ccccc2)c1 the listed IC50 is 800

----------
Documented inhibition across a set of compounds
- test-system: C5a anaphylatoxin chemotactic receptor 1 (Homo sapiens)
- Sequence (whole entry): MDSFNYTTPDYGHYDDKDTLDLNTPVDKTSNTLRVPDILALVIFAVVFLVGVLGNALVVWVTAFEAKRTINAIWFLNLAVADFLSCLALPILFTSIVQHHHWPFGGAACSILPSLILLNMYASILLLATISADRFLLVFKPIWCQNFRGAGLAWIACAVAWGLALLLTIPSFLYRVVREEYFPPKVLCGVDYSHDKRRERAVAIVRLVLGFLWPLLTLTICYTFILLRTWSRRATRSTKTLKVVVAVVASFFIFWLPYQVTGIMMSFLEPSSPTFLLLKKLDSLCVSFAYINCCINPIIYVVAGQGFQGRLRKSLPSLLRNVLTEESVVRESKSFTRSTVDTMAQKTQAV
- assay-summary: Tested in vitro for the inhibition against C5a anaphylatoxin chemotactic receptor assayed on human monocyte cell line U937 at 30 uM
- Assay type: cell-based
- reported-conditions: U-937

Below: 2 compounds and their reported inhibition.
{"columns": ["smiles-code", "inhibition"],
 "data": [
  ["C/N=C(/N)Nc1ccc(OCc2ccccc2)c(-c2ccc(F)cc2)c1", "20%"],
  ["C/N=C(/N)Nc1ccc(Oc2ccccc2)c(OCc2ccccc2)c1", "32%"]
]}

For record CC/N=C(\N)Nc1ccc(OCc2ccccc2)c(OCc2ccccc2)c1 the listed inhibition is 40%

For record CNC(=N)Nc1ccc(OC)c(OCc2ccccc2)c1 the listed inhibition is 20%

----------
- test-system: C5a anaphylatoxin chemotactic receptor 1 (Homo sapiens)
- Sequence (P21730 whole entry): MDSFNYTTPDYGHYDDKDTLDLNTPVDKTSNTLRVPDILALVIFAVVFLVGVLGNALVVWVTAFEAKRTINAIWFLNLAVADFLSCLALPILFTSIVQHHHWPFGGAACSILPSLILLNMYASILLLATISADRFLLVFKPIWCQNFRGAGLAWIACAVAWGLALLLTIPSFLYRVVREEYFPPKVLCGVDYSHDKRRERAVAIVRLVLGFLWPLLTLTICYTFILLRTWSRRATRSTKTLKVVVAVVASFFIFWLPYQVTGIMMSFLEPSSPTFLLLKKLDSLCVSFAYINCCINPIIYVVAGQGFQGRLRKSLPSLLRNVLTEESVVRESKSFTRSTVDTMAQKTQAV
- assay-summary: Binding affinity against C5a anaphylatoxin chemotactic receptor assayed on human monocyte cell line U937
- Format: cell-based, U-937
Documented IC50 across a set of compounds
The response must be a number in µM with no trailing unit.

Below: 2 compounds and their reported IC50.
{"columns": ["smiles-code", "IC50 [µM]"],
 "data": [
  ["C/N=C(/N)Nc1ccc(OCc2ccccc2)c(-c2cccc(F)c2)c1", 8],
  ["C/N=C(/N)Nc1ccc(OCc2ccccc2)c(-c2cccs2)c1", 9]
]}

For record CNC(N)=Nc1ccc(OCCc2ccccc2)c(OCc2ccccc2)c1 the listed IC50 is 7.5
